Organism: Rattus norvegicus
Experiment: Open TG-GATES - Regimen: Daily Repeat
Assay type: toxicity, organism-based, Sprague-Dawley
Design: regimen Daily Repeat, gender Male, age 6 weeks
Settings: in vivo, po, 0 mg/kg, […], tissue Blood, route gavage, dose level Control, time 28 day
reported_endpoint: MCH (pg)

INSERT INTO assay_data (molecule, reported_endpoint, value_units, value) VALUES
  ('Cn1c(=O)c2c(ncn2C)n(C)c1=O', 'MCH', 'pg', 19.4),
  ('C=CCO', 'MCH', 'pg', 19.6),
  ('Cc1cccc(Nc2cc(Cl)nc(SCC(=O)O)n2)c1C', 'MCH', 'pg', 19.8),
  ('O=P1(N(CCCl)CCCl)NCCCO1 (centres undefined) [CYCLOPHOSPHAMIDE ANHYDROUS]', 'MCH', 'pg', 19.2);
